# Procedure text: Bioavailability / pharmacokinetic study in male rats (IV and PO)
# Type: in vivo, rat
# Assay setup: plasma; pro-drug itself, observed when dosed as pro-drug; male rat, PO 5 mg/kg
# Description: Example 8 was formulated in 0.9% w/v saline pH 4 (adjusted with 1M HCl) for IV dosing. The formulation was dosed at 2 mg/kg by femoral catheter to two male rats each (170-250 g). Jugular vein catheter serial blood samples were taken at 0.033, 0.083, 0.167, 0.5, 1, 2, 4, 8, and 24 hrs post-dose. […] Where appropriate, measured and not nominal doses were used to calculate bioavalability.
Measured metric: Tmax (min)

CC(C)[C@H](N)C(=O)N[C@H]1CN[C@]2(CCCCB(O)OC2=O)C1 | 15
NCC(=O)N[C@H]1CN[C@@](CCCCB(O)O)(C(=O)O)C1 | 30
CC(C)(O)[C@H](N)C(=O)N[C@H]1CN[C@@](CCCCB(O)O)(C(=O)O)C1 | 60

[P] CC(C)[C@H](N)C(=O)N[C@H]1CN[C@@](CCCCB(O)O)(C(=O)O)C1
[Q] N[C@@H](CO)C(=O)N[C@H]1CN[C@@](CCCCB(O)O)(C(=O)O)C1
Q) Between P and Q , which one shows the smaller Tmax number? Record your answer as the label of the chosen record.
A) P

* * *

# Procedure text: Bioavailability / pharmacokinetic study in male rats (IV and PO)
# Type: in vivo, rat
# Assay setup: plasma; pro-drug itself, observed when dosed as pro-drug; male rat, IV 2 mg/kg
Measured metric: clearance (mL/min/kg)

NCC(=O)N[C@H]1CN[C@@](CCCCB(O)O)(C(=O)O)C1 [Example 13] | 17.9
COC[C@H](N)C(=O)N[C@H]1CN[C@@](CCCCB(O)O)(C(=O)O)C1 [Example 18] | 317

[P] CC(C)[C@H](N)C(=O)N[C@H]1CN[C@@](CCCCB(O)O)(C(=O)O)C1 [Example 9]
[Q] CC(C)C[C@H](N)C(=O)N[C@H]1CN[C@@](CCCCB(O)O)(C(=O)O)C1 [Example 16]
Q) Field: entry with larger clearance (options P / Q ). Record your answer as the label of the chosen record.
A) Q
(Q: 585 mL/min/kg, P: 33.3 mL/min/kg)

* * *

# Target or system: Human Arginase 1 (Homo sapiens (Human))
# Sequence (P05089 whole entry): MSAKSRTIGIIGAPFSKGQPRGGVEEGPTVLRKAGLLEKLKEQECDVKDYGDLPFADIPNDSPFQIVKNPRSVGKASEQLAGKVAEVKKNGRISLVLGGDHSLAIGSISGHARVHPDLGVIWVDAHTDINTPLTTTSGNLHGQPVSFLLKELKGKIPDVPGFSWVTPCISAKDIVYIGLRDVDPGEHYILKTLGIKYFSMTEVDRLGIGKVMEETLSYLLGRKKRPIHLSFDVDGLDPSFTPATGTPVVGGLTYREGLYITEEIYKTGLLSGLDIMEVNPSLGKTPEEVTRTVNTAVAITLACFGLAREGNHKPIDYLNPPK
# Procedure text: Human Arginase 1 enzyme inhibition (thioarginine/DTNB absorbance assay)
# Assay setup: recombinant enzyme 5 nM, 0.5 mM thioarginine premix, 60 min
pIC50: −log10 of the molar value.
Measured metric: pIC50

Field: example entries. Status: answers known.
NCC(=O)N[C@H]1CN[C@@](CCCCB(O)O)(C(=O)O)C1 | 6.37
NCCN[C@H]1CN[C@@](CCCCB(O)O)(C(=O)O)C1 | 5.84

[1] NCCN[C@H]1CN[C@](CCCCB(O)O)(C(=O)O)C1
[2] CC(C)[C@](C)(N)C(=O)N[C@H]1CN[C@@](CCCCB(O)O)(C(=O)O)C1
Q) Between 1 and 2 , which one shows the smaller pIC50 number? Record your answer as the label of the chosen record.
A) 2

[a] CC(C)(O)[C@H](N)C(=O)N[C@H]1CN[C@@](CCCCB(O)O)(C(=O)O)C1
[b] NC[C@H](N)C(=O)N[C@H]1CN[C@@](CCCCB(O)O)(C(=O)O)C1
Q) Between a and b , which one shows the smaller pIC50 number? Record your answer as the label of the chosen record.
A) b
(b: 6.03, a: 6.47)

Values from patent US11420984B2
